Assign pIC50 to each entry below.
Molecular target: hERG channel (Homo sapiens (Human))
Sequence (Q12809 whole entry): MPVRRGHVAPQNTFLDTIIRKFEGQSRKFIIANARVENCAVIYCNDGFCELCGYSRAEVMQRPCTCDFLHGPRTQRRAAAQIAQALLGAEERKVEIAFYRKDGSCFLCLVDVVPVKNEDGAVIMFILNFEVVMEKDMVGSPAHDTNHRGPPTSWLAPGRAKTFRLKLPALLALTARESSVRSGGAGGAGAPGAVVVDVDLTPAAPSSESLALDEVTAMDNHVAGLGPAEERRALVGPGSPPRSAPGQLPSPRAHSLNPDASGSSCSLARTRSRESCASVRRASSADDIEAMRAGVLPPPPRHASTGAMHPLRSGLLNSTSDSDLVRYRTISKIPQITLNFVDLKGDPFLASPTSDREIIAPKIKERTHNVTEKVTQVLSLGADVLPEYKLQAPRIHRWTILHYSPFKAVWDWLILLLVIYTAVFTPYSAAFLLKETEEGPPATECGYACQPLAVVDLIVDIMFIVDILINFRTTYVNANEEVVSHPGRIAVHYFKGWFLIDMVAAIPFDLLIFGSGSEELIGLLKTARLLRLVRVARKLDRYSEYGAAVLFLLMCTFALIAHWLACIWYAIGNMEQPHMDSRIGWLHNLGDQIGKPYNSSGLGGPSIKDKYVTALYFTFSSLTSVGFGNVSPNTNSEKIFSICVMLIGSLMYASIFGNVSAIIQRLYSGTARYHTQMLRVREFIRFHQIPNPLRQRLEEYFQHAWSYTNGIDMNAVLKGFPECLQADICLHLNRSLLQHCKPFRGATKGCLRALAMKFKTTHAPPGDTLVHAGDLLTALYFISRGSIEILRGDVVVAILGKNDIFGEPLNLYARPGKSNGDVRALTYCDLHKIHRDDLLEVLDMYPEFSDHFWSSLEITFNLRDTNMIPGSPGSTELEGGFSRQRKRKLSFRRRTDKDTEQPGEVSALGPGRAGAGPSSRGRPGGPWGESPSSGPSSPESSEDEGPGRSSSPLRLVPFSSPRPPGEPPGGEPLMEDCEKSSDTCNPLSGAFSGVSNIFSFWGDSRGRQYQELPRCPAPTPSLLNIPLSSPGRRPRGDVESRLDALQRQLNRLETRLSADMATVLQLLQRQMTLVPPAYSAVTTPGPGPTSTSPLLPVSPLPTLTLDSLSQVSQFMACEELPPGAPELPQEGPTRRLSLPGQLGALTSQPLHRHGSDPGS
Test: Test 5: inhibitory activity for hERG channel (whole cell patch clamp, hERG-CHO cells)
Format: cell-based
Conditions: hERG-CHO cells, auto patch clamp
Description: Test 5: Evaluation of Inhibitory Activity for hERG Channel Inhibitory activity of the present compound for hERG channel was measured by whole cell patch clamp method with an auto patch clamp system using CHO cells in which hERG channel involved in human rapidly activating delayed rectifier potassium current (IKr) was forcibly expressed. […]
The meaning of pIC50 here: minus log10 of the concentration in molar units.

-- ask So what's the measured pIC50 for this one? CCN(CCN1CCC(c2noc3cc(F)ccc23)CC1)C(=O)C1(O)CC1
-- reply 5.26

-- ask So what's the measured pIC50 for this one? CCN(CCN1CCC(c2noc3cc(F)ccc23)CC1)C(=O)C(C)(C)CO
-- reply 5.46

-- ask So what's the measured pIC50 for this one? CCN(CCN1CCC(c2c[nH]c3cc(F)ccc23)CC1)S(=O)(=O)CCO
-- reply 5.27

src = patent US11339151B2
